biological target: p53-Y220C mutant protein (Homo sapiens, UniProt P04637, Y220C); construct: The recombinant Y220C p53 DBD protein with his-tag; test: In vitro DNA binding activity assay (TR-FRET); format: biochemical; settings: concentration required to increase the binding activity of protein to DNA by 50%
reportedProperty: SC150 (nM)

Please review the entries below; each comes with its answer.
Qu. Fill in reported SC150 for this entry: CN1CC[C@@H](Nc2cccc3c(CC(F)(F)F)c(C#CCNC(=O)c4cccnc4)nn23)[C@@H](F)C1
Ans. 51

Qu. Consider the molecule CN1CC[C@@H](Nc2cccc3c(CC(F)(F)F)c(C#CCNC(=O)c4ccc(=O)n(C)c4)nn23)[C@@H](F)C1 and give its recorded SC150.
Ans. 40

P: CCn1cc(C(=O)NCC#Cc2nn3c(N[C@@H]4CCN(C)C[C@@H]4F)cccc3c2CC(F)(F)F)c(Cl)n1
Q: CN1CC[C@@H](Nc2cccc3c(CC(F)(F)F)c(C#CCNC(=O)c4ccn(C5(C)CC5)c4)nn23)[C@@H](F)C1
R: CN1CC[C@@H](Nc2cccc3c(CC(F)(F)F)c(C#CCNC(=O)c4cnn(C5CCCC5)c4)nn23)[C@@H](F)C1
Qu. Order these by SC150, descending, and give the full ranking. # answer = labels listed in requested order
Ans. P, Q, R
(P: 56 nM, Q: 28 nM, R: 11 nM)
